System: anaesthetized cats
Assay: Determination of the effect on blood pressure and positive inotropic activity in anaesthetized cats
Assay type: in vivo
Details: 0.3 mg/kg i.v.; anaesthetized cats (sodium pentobarbital); pressure in aorta abdominalis; average of 2 cats
So basically: Diastolic blood pressure change at -20 mmHg or higher? That is true. Lower than -20 mmHg? That is false.

CHEM_SMILES | GROUP
CCN1C(=O)OC(C)(C)c2cc3[nH]c(-c4ccco4)nc3cc21 | false
CC1(C)OC(=O)Nc2cc3nc(-c4ccncc4)[nH]c3cc21 | true
CCCc1nc2cc3c(cc2[nH]1)C(C)(C)OC(=O)N3 | true
CCN1C(=O)OC(C)(C)c2cc3[nH]c(-c4ccncc4)nc3cc21 | false
CC1(C)OC(=O)Nc2cc3nc(-c4ccco4)[nH]c3cc21 | true
CC1(C)OC(=O)Nc2cc3nc(-c4cccs4)[nH]c3cc21 | false
